Experiment: chemical genetic growth profiling, strain panel (AID 1159580);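 further: tested at 20 µM; growth read once vehicle control cultures reached saturation at 30 °C; 1 = growth at the plate median or of vehicle wells; lower values mean less growth of the strain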
Conditions: S. cerevisiae deletion strains, growth OD, locus YCL016C, strain dcc1, active compounds read low
In all, about 5,500 compounds went through this assay and about 2,000 (36%) were called active. Another 18% or so got no clear call; they are omitted. Some of the results follow.
readout_label: normalized growth

compound	readout_label	observed
C[N+](C)(C)CCOP(=O)([O-])OP(=O)(O)OC[C@H]1OC(n2ccc(N)nc2=O)[C@H](O)[C@@H]1O (some centres not stated)	normalized growth	1.01
CCCCCCCC/C=C/CCCCCCCCOP(=O)([O-])OCC[N+](C)(C)C	normalized growth	0.0586
CC(C)[C@H](N)C(=O)OCCOCn1cnc2c(=O)[nH]c(N)nc21	normalized growth	1.05
CNC1(C)C2CCC(C2)C1(C)C (configuration not stated)	normalized growth	0.977
CN1CCCC(n2nc(Cc3ccc(Cl)cc3)c3ccccc3c2=O)CC1 (configuration not stated)	normalized growth	1.04
COc1ccc(C[C@H]2NC[C@H](O)[C@H]2OC(C)=O)cc1	normalized growth	0.791
C=CC1=C(C(=O)O)N2C(=O)[C@@H](NC(=O)/C(=N/O)c3csc(N)n3)[C@H]2SC1	normalized growth	1.03
COc1cc(O)c2c(=O)cc(C)oc2c1CC=C(C)C	normalized growth	0.953
Cc1cc(=O)c2c(O)cc(O)c(C)c2o1	normalized growth	0.937
NC(N)=NOCC[C@H](N)C(=O)O	normalized growth	1.01
CCCCCCCCCCCCCCCCOP(=O)([O-])OCC[N+](C)(C)C	normalized growth	0.0649
COc1cc2c(cc1OC)C(=O)C(CC1CCN(Cc3ccccc3)CC1)C2 (configuration not stated)	normalized growth	0.986
